Protocol text: JC-1 mitochondrial signal, unstimulated myeloma cells – cell-based, JC-1 fluorescence, RPMI8226, 24 h, 100 nL compound, profiling panel (AID 1169); further: test concentration not given here
Conditions used: JC-1 mitochondrial potential fluorescence, higher = more signal
Provide the recorded z-score for the entries that follow.
// print number alone

// lookup z-score for `CCCNC(=O)[C@@]1(C)c2ccccc2C(=O)N(c2ccc(C)cn2)[C@H]1c1ccc(CO)cc1` 0.0215

// lookup z-score for CC(CO)N1C(=O)[C@]2(C)C3C(=O)OCCC/C=C\[C@H]3OC23C=CCN(c2ccc(Cl)cc2)C(=O)[C@@H]13 (some centres undefined) -0.765

// lookup z-score for `CN(C)C(=O)[C@@]1(Cc2ccccc2CN=[N+]=[N-])N=C(c2ccc(OCCCO)cc2)O[C@H]1c1ccccc1N=[N+]=[N-]` -1.08

// lookup z-score for Cn1cccc1C(O)C1C=CC2C(=O)N(c3ccccc3)C(=O)C2N1Nc1ccccc1 (centres undefined) -0.509

// lookup z-score for `[N-]=[N+]=Nc1ccccc1C[C@@]1(C(N)=O)N=C(c2ccc(OCCCO)cc2)O[C@@H]1c1ccccc1N=[N+]=[N-]` -1.23

// lookup z-score for `COc1ccc(CCNC(=O)[C@@]2(Sc3ccc(C)cc3)CC(=O)N(Cc3ccccc3C(F)(F)F)[C@@H]2c2ccc(CO)cc2I)cc1` -0.714

// lookup z-score for `Cc1ccc(N2C(=O)c3ccccc3[C@@H](C(=O)NCCCN(C)C)[C@@H]2c2ccc(CO)cc2)nc1` -0.0886

// lookup z-score for `C=CCN1C(=O)[C@]2(CCC(=O)OC(C)(C)C)N=C(c3ccc(OCCCO)cc3)O[C@@H]2c2ccccc21` -1.05

// lookup z-score for `O=C(O)[C@@H]1[C@@H]2C(=O)N(c3ccccc3)C(=O)[C@@H]2C[C@@H]1Sc1ccccc1` 0.718

---

Provide the recorded z-score for the entries that follow.
Protocol text: JC-1 mitochondrial potential readout, lung cancer cells – cell-based, A549, JC-1 fluorescence, basal, 24 h, 100 nL, profiling panel (AID 1138);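 further: A549 lung adenocarcinoma cells under basal conditions with no added stimulus; test concentration not given here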
Conditions used: higher = more signal
// print number alone

// lookup z-score for `NC(=O)[C@@]1(Cc2ccccc2)COC(c2ccc(OCCCO)cc2)=N1` -0.244

// lookup z-score for `COc1ccc([Si](C)(C)[C@@H]2[C@@H](CCO)O[C@]3(C(=O)N(Cc4ccccc4)c4ccc(NC(=O)[C@H](C)O)cc43)[C@H]2C)cc1` -0.955

// lookup z-score for `[N-]=[N+]=Nc1ccccc1C[C@]1(C(=O)O)COC(c2ccc(OCCCO)cc2)=N1` -0.991

// lookup z-score for `COC(=O)[C@@]1(Cc2ccccc2)[C@H]2c3cc(C(=O)N(C)C)n(Cc4ccc(C)o4)c3C[C@H]2CN1C(=O)c1ccccc1` -0.0901

// lookup z-score for O=C1CS(=O)(=O)C(c2cccc([N+](=O)[O-])c2)N1c1ccccc1 (stereo unspecified) 1.53

// lookup z-score for `CCOC(=O)C[C@H]1[C@H](OC(=O)c2ccc(C(=O)c3ccccc3)cc2)[C@@H](NC(=O)c2ccc(-c3ccccc3)cc2)c2cc(OCCCO)ccc2N1C(=O)Cc1ccc(OC)cc1` 0.967

// lookup z-score for `CCCNC(=O)[C@@H]1c2ccccc2C(=O)N(Cc2ccc(OC(F)(F)F)cc2)[C@H]1c1ccc(CO)cc1` 1.93

// lookup z-score for `COC(=O)c1c(CC[C@@H](CO)NC(=O)N[C@@H](C)Cn2cc(-c3ccccn3)nn2)oc(C(C)=O)c1C(=O)OC` -0.467

// lookup z-score for `CN(C)C(=O)[C@@]1(Cc2ccccc2CN=[N+]=[N-])N=C(c2ccc(OCCCO)cc2)O[C@H]1c1ccccc1N=[N+]=[N-]` -1.02

// lookup z-score for `CCCN1C(=O)[C@@]2(Cc3ccccc31)N=C(c1ccc(OCCCO)cc1)O[C@H]2c1ccccc1` 1.69

// lookup z-score for `C=C(C(=O)CC[C@H](OC(=O)c1ccccc1-c1ccccc1C(=O)O)c1cccc(OCCO)c1)C(C)C` -0.697
